Record form. Attribute: EC50. Fill in for each entry.
System: CCRF-CEM
experimentDescription: Tested for the inhibitory activity of virus induced giant cell formation in HIV-1 infected CEM cells
Assay type: functional, cell-based
measurementParameters: Homo sapiens

## Task Report EC50 for Cc1cn([C@@H]2O[C@H](CO[Si](C)(C)C(C)(C)C)C3(OS(=O)(=O)C=C3N)[C@H]2O[Si](C)(C)C(C)(C)C)c(=O)[nH]c1=O (stereo partly specified)
## Result 0.06 µM

## Task Give the reported EC50 for this compound. CC(=O)c1cnnn1[C@@H]1O[C@H](CO[Si](C)(C)C(C)(C)C)[C@@]2(OS(=O)(=O)C=C2N)[C@H]1O[Si](C)(C)C(C)(C)C
## Result 1.1 µM

## Task Supply measured EC50 of CCCCc1cn([C@@H]2O[C@H](CO[Si](C)(C)C(C)(C)C)[C@@]3(OS(=O)(=O)C=C3N)[C@H]2O[Si](C)(C)C(C)(C)C)nn1 in your reply.
## Result 1.5 µM

## Task For the compound CC(=O)c1cn([C@@H]2O[C@H](CO[Si](C)(C)C(C)(C)C)[C@@]3(OS(=O)(=O)C=C3N)[C@H]2O[Si](C)(C)C(C)(C)C)nn1 , give its measured EC50 value.
## Result 1.1 µM

## Task For the compound CCCc1cnnn1[C@@H]1O[C@H](CO[Si](C)(C)C(C)(C)C)[C@@]2(OS(=O)(=O)C=C2N)[C@H]1O[Si](C)(C)C(C)(C)C , report EC50.
## Result 3.9 µM

## Task In one line, give reported EC50 of the entry CC(C)(C)[Si](C)(C)OC[C@H]1O[C@@H](n2nncc2CCCCl)[C@H](O[Si](C)(C)C(C)(C)C)[C@]12OS(=O)(=O)C=C2N .
## Result 0.82 µM
